IC50 data for UniProtKB Q9H999 follow.
Sequence (Q9H999 whole entry): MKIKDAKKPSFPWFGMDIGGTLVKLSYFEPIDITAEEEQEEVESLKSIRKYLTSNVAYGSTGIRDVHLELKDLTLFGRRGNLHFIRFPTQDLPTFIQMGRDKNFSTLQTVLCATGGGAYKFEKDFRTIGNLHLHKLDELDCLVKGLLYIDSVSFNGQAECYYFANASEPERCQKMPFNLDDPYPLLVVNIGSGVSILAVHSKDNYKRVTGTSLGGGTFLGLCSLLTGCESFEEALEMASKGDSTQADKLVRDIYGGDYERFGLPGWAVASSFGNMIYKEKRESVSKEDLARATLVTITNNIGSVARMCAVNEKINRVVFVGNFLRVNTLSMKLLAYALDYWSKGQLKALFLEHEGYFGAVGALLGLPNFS
Observable: IC50 (nM)

Example results:
CC(C)c1ccc(CC(=O)NCC2(CCl)CN(c3ccc(Cl)nn3)C2)cc1: 1.2
O=C(Cc1ccc(C2CC2)cc1)N1CCN(c2nc3ncc(F)cc3o2)CC1: 1.1
C[C@H]1CN(c2ccc(Cl)nn2)CCN1C(=O)Cc1ccc(N(C)C)cc1: 11.1
O=C(Oc1ccc(C2CC2)cc1)N1CCN(c2nc3ncc(F)cc3o2)CC1: 2
CS(=O)(=O)Nc1ccc(CC(=O)N2CCN(c3nc4cccnc4s3)CC2)cc1: 5.67
O=C(Cc1ccc(C2CC2)cc1)N1CCN(c2nc3ncccc3s2)CC1: 1
O=C(Cc1ccc(Cl)cc1)N1CCN(c2nc3ncc(F)cc3o2)CC1: 37.5
CN(C)c1ccc(CC(=O)N2CCN(c3nc4cccnc4o3)CC2)cc1: 346
CN(C)c1ccc(CC(=O)N2CCN(c3nc4ccccc4s3)CC2)cc1: 370
O=C(Cc1ccc(C2CC2)cc1)N1CCN(c2nc3cc(F)cnc3o2)CC1: 10.3

[A] CC(C)c1ccc(CC(=O)N2CCN(c3nc4cccnc4s3)CC2)cc1
[B] O=C(Cc1ccc(C2CC2)cc1)N1CCN(c2nc3ncc(Cl)cc3o2)CC1
IN: # query: argmin of IC50 over A and B Let me know the label of the one you choose.
OUT: B
(B: 1.23 nM, A: 3.95 nM)

[1] N#Cc1cnc(N2CCN(C(=O)Cc3ccc(C4CC4)cc3)CC2)cn1
[2] O=C(Cc1ccc(C2CC2)cc1)NCC1(CO)CN(c2ccc(Cl)nn2)C1
IN: # query: argmin of IC50 over 1 and 2 Let me know the label of the one you choose.
OUT: 1
(1: 27 nM, 2: 606 nM)

---

target: UniProt Q9H999
Observable: IC50 (nM)

CC(C)c1ccc(CC(=O)N2CCN(c3nc4cc(F)cnc4o3)[C@@H](C)C2)cc1 [PZ-4475]: 0.76
O=C(Cc1ccc(C2CC2)c(F)c1)N1CCN(c2nc3ncccc3o2)CC1 [PZ-4348]: 5.7
O=C(Cc1ccc(C2CC2)cc1)N1CCN(c2nc3ccccc3[nH]2)CC1 [PZ-4312]: 987
CN(c1ccc(CC(=O)N2CCN(c3ccc(Cl)nn3)CC2)cc1)S(C)(=O)=O [PZ-4200]: 120

[1] CC(C)c1ccc(CC(=O)NCC2(CCl)CN(c3nc4cc(F)cnc4o3)C2)cc1 [PZ-4473]
[2] O=C(Cc1ccc(C2CC2)cc1)N1CCN(c2nc3ccccc3s2)CC1 [PZ-4285]
[3] CN(C)c1ccc(CC(=O)N2CCN(c3nc4ncccc4s3)CC2)cc1 [PZ-4316]
[4] O=C(Cc1ccc(C2CC2)c(F)c1)N1CCN(c2nc3cccnc3o2)CC1 [PZ-4343]
[5] CC(=O)OCC1(CNC(=O)Cc2ccc(C3CC3)cc2)CN(c2ccc(Cl)nn2)C1 [PZ-4510]
IN: Order the 5 compounds from highest to lowest IC50. # respond with the labels, arranged in the requested order
OUT: 5, 4, 2, 1, 3
